Target: T1, MBP-SelU (tRNA 2-selenouridine synthase) (Escherichia coli, UniProt P33667 1-364)
T1 sequence: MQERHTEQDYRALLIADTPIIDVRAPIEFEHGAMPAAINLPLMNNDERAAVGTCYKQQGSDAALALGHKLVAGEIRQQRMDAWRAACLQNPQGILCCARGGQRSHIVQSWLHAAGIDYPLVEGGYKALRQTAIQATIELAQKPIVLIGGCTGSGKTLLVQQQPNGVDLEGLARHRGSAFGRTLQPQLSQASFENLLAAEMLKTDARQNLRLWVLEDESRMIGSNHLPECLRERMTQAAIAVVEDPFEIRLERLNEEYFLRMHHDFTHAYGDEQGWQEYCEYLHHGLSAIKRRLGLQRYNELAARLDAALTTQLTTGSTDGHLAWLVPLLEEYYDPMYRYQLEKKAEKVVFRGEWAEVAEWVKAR
Test: MST (initial fluorescence); 10 mM Mg2+; MST: 2x assay buffer 20 mM Tricine pH 7.2, 20 mM MgCl2, 0.1% Tween-20 mixed with RNA (about 10 mM Tricine, 10 mM MgCl2, 0.05% Tween-20 final if 1:1); Cy3-RNA 50-75 nM; 30 min at room temperature, measured at 22 C
Settings: protein: recombinant; tags: N-terminal MBP (42 kDa, pMAL-c5x); label: 5'-Cy3; hairpin, 7-nt loop
experimental_readout: pKd
# log scale: pKd equals minus log10 of the concentration in mol/L

Some binders with recorded pKd:
Query string: Which pKd value is on record for GUUGACUUUUAAUCAAC (structured_RNA, S-geranyl-2-thiouridine (geS2U) at nt 8 (tRNA position 34)) [Cy3-geS2U(34)-RNALys] ?
Result string: 5.40

Query string: Then what about the binder GUUGACUUUUAAUCAAC (structured_RNA, 2-selenouridine (Se2U) at nt 8 (tRNA position 34)) [Cy3-Se2U(34)-RNALys] ?
Result string: 4.57

Consider now this further binder.
Query string: // query pKd value for entry GUUGACUUUUAAUCAAC (structured_RNA, 2-thiouridine (S2U) at nt 8 (tRNA position 34)) [Cy3-S2U(34)-RNALys]
Result string: 4.65
